Cited source: paper PMC8893300

Reported Activity in DMR assay Emax values for the following compounds.
Target: human sweet taste receptor (hT1R2/hT1R3) (Homo sapiens, UniProt Q7RTX0+Q8TE23)
Construct: expressed in transfected cells
Sequence (Q8TE23 20-839): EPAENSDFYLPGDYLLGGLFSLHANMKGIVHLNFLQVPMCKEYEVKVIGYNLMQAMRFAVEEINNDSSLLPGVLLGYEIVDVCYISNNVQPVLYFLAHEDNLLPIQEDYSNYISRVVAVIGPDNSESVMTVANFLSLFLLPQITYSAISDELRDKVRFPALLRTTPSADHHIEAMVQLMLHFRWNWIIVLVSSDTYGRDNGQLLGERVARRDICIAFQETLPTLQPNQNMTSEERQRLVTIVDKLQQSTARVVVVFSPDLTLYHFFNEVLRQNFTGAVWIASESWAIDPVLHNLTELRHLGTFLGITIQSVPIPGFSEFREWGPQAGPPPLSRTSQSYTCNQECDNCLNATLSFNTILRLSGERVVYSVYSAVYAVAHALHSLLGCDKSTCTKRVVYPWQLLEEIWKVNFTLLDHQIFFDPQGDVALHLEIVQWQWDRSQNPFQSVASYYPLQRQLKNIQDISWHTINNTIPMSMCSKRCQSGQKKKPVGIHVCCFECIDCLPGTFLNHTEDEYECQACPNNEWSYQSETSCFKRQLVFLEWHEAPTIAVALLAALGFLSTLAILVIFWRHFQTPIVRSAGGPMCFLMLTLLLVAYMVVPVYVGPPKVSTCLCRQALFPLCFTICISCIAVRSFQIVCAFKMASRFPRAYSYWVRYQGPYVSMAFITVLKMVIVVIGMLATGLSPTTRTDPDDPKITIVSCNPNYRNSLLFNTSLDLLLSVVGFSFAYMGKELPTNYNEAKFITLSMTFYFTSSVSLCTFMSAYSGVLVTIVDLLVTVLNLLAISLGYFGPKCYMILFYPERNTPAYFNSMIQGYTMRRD
Sequence (Q7RTX0 21-852): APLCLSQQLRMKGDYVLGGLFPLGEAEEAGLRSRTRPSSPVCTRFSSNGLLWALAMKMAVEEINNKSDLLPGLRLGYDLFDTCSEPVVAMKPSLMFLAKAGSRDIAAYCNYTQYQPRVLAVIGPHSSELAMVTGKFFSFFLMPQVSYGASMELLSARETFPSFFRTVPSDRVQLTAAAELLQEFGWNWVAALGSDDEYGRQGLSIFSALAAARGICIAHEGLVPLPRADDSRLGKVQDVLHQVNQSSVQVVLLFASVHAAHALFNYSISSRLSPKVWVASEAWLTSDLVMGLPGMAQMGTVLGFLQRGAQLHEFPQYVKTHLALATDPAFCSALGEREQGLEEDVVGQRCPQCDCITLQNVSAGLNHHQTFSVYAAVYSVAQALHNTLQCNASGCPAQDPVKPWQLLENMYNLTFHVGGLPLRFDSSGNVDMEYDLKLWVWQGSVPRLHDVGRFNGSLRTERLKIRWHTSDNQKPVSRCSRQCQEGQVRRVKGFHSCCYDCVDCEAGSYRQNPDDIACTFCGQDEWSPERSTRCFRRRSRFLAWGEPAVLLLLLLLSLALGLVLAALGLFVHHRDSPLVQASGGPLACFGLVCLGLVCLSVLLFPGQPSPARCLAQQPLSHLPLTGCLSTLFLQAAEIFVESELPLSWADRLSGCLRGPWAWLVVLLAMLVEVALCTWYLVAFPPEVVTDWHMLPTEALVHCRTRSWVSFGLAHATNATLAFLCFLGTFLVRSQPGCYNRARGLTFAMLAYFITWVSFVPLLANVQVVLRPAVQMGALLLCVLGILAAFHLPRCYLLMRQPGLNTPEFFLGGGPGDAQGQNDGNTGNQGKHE
Assay: DMR assay (Epic reader) on R2/R3 U2OS cells, endogenous G proteins
Assay type: cell-based
Details: top asymptote of dose-response normalized to 1 mM sucralose
Residues, ends and D or L forms follow the SMILES beside them.
property-name: Activity in DMR assay Emax

# compound, reported-result
data = [
    ("COC(=O)[C@H](Cc1ccccc1)NC(=O)[C@H](CC(=O)O)NC(=O)Nc1ccc(C#N)cc1", 109),
    ("CC(C)Oc1ccc(NC(=S)NCc2cccs2)cc1", 128),
    ("COC(=O)[C@H](Cc1ccccc1)NC(=O)[C@@H](N)CC(=O)O [Aspartame] (H-Asp-Phe-OMe)", 143),
    ("CCCOc1ccc([N+](=O)[O-])cc1N", 102),
]
